TARGET OR TEST SYSTEM: T1, cynomolgus (cyno) TMEM106B (cynomolgus, UniProt Q9NUM4 2-274 (human entry))
T1 construct: on transiently transfected HEK293 cells
ASSAY METHOD TEXT: FACS, HEK293 transfectants;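 note: flow cytometry binding of hybridoma supernatants to HEK293 cells transiently expressing human, cyno or mouse TMEM106B, read as anti-mouse-APC median fluorescence, live cells only, 30 min on ice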
# binning rule on fold-change over parental HEK293: class A (below 20 fold), class B (20 fold to below 40 fold), class C (40 fold or more)

| BINDER | CLASS |
| --- | --- |
| anti-TMEM106B antibody TM-7 (antibody, V domains shown) VH: EVQLQQSGPVLVKPGPPVKISCKASGFTFTDYYIHWVKLSHGKSLEWIGLVYPYNGDTDYNQKFKGKATLTVDTSSSTAYMELNSLTSEDSAVYYCARTYYANSPDYWGQGTTVTVSS VL: DIVMTQSPSSLSVSAGEKVTMSCKSSQSLLNSGNQRNYLAWYQQKPGQPPKLLIYGASTRESGVPDRFTGSGSGTDFTLTISNVQAEDLAVYYCQNDHSYPLTFGAGTKLELK | class C |
| anti-TMEM106B antibody TM-26 (antibody, V domains shown) VH: QVQLQQSGAELIRPGTSVKVSCKASGYAFTNYLIEWVKKRPGQGLEWIGVINPGSGITNYNEKFKGKATLTADKSSSTAYMQLSSLTSEDSAVYFCARSDFITTVVADYWGQGTTVTVSS VL: DIVVTQTPLSLPVSFGDQVSISCRSSQSLTNYYGNTYLSWYLHKPGQSPQLLIYGISNRFSGVPDRFSGSGSGTDFTLKISTIKPEDLGMYYCLQGTHQPRTFGGGTKLEIK | class A |
| anti-TMEM106B antibody TM-27 (antibody, V domains shown) VH: QVQLQQSGAELVRPGTSVKVSCKASGYALTNYLIEWVKQRPGQGLEWIGVINPGSGSTKYNEKFKGKATLTADKSSSTAYMQLSSLTSEDSAVYFCARIIYDHDWYFDVWGTGTTVTVSS VL: QIVLTQSPAIMSASPGEKVTISCSASSSISYMYWYQQKPGSSPKPWIYRTSTLASGVPARFSGSGSGTSYSLTISSMEAEDAATYYCQQYHSYPRTFGGGTKLEIK | class A |
| anti-TMEM106B antibody TM-13 (antibody, V domains shown) VH: QVQLQQSGAELVKPGASVKMSCKASGYTFTTFPIEWMKQSHGKGLEWIGNFHPYNDDTKYNEKFKGKATLTVDKSSSTVYLDLSRLTSDDSAVYYCARYFYGGMDYWGQGTSVTVSS VL: DIQMTQSPASLSVSVGETVTITCRASENIYSSLGWYQQKQGESPQLLVFAATNLADGVPSRFSGSGSGTQYSLKINSLQSEDFGTYYCQHLWSIPWTFGGGTRLEIK | class C |
| anti-TMEM106B antibody TM-1 (antibody, V domains shown) VH: QVQLQQSGAELVRPGTSVKVSCKASGYAFTNYLIEWVKQRPGQGLEWIGVINPGSGGTKYNEKLKGKATLTADKSSSTAYMQLSSLTSVDSAVYFCARRGYTIYDFYAMDYWGQGTSVTVSS VL: DVLMTQTPLSLPVSLGDHASISCRSSQSIVYNNGNTYLEWYLQKPGQSPKLLIYKVSNRFSGVPDRFSGSGSGTDFTLKISRVEAEDLGVYYCFQVSHVPFTFGSGTKLEIK | class A |
| anti-TMEM106B antibody TM-29 (antibody, V domains shown) VH: QVQLRQSGAELVRPGASVKLSCKASGYTFTDYYINWVKQRPGQGLEWIARIYPGSGYTYYNEKFKGKATLTAEGSSNTAYMQLSSLTSEDSAVYFCANHYTNPFAYWGQGTLVTVSA VL: DIVMTQAAFSNPVTLGTSASISCRSSKSLLHYNGITYLYWYLQKPGQSPQLLIYQMSNLASGVPDRFSSSGSGTDFTLRISRVEAEDVGVYYCAQNLELPYTFGGGTKLEIK | class C |
| anti-TMEM106B antibody TM-9 (antibody, V domains shown) VH: EVQLVESGGDLVKPGGSLKLSCVASGFTFSGYGMSWVRQTPDKRLEWVATISSGSFYIYYPDSVKGRLTVSRDNAKNTLYLQMSSLKSEDTAIYYCARQNFYYGCEDYWGQGTTLTVSS VL: DIVMTQAAFSNPVTLGTSASISCRSSKSLLHSNGITYLYWYLQKPGQSPQLLIYQMSNLASGVPNRFSSSGSGTDFTLRISRVEAEDVGVYYCAQNLELPWTFGGGTKLEIK | class B |
| anti-TMEM106B antibody TM-12 (antibody, V domains shown) VH: EVQLQQSGAELMRPGASVKLSCTASGFNIQDYYMYWVKQRPEQGLEWIGRIDPEDGDAEYAPKFQGKATMTADTSSNTAYLQLSSLTSEDTAVYYCSTRVIYDGYYRTMDCWGQGTSVTVSS VL: DVLMTQIPLSLPVSLGDQASISCRSSQTIVHSNGNTYLEWYLKKPGQSPKLLIDKISNRFSGVPDRFSGSGSGTDFTLKISRVEAEDLGVYYCFQGSHVPYTFGGGTKLEIK | class C |
| anti-TMEM106B antibody TM-17 (antibody, V domains shown) VH: QVQLQQSGAELIRPGTSVKVSCKASGYAFTDYLIEWVKQRPGQGLEWIGVINPGSGGTNYNEKFKGKAKLTADKSSSTAYMQLSSLTSEDSAVYFCVRSSYGVYVAYPMDYWGQGTSVTVSS VL: DIQMTQSPSSLSASLGERVSLTCRASQDIGSNLNWLQQEPDGTIKRLIYATSSLDSGVPKRFSGSRSGSDYSLTISSLESEDFVDYYCLQYASSPRTFGGGTKLEIK | class A |

Consider now this further binder.
Exam item: Lab log: anti-TMEM106B antibody TM-5 (antibody, V domains shown) VH: QVQLQQSGTELARPGASVKVSCKASGYIFTTYGITWVKQRGGQGLEWIGEIYPRSDNTYYNEKFKDKATLTADKSSSTAYMELRSLTSEDSAVYFCARSKGSGTGDYWGQGTTVTVSS VL: DIQMTQSPASLSASVGETVTITCRASENIYIYLAWYQQKQGKTPQLLVYNGKMLAENVPSRFSGSGSGTQFSLKINSLQPEDFGSYYCQHHYGSPPAFGAGTKLELK — assign fold-change over parental HEK293 category
Marked response: class B

The values you see were collected from patent US20230303681A1.
